# Assay system: SHP2 (Homo sapiens, UniProt Q06124)
# Sequence (Q06124 whole entry): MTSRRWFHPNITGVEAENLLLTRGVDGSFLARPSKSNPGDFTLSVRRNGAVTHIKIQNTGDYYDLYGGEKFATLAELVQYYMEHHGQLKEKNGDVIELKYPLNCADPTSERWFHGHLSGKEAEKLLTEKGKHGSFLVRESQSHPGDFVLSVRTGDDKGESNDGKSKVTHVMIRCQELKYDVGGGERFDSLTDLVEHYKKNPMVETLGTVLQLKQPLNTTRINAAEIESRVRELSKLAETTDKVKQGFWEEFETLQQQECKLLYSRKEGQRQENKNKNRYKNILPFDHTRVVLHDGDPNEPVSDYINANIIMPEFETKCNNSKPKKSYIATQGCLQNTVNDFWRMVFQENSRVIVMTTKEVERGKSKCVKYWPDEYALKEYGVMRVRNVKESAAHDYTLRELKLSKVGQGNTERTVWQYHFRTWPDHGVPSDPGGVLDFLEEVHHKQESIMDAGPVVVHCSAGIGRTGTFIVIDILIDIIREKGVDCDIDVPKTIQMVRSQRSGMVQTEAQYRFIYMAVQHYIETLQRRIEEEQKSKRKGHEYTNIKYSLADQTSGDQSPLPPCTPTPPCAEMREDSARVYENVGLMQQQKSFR
# Test name: SHP2 allosteric inhibition assay (DiFMUP prompt fluorescence)
# Type: biochemical
# Setup conditions: Table 6; 0.25 nM SHP2, 0.5 μM IRS1_pY1172(dPEG8)pY1222 peptide, DiFMUP 100 μM
# Experimental: SHP2 Allosteric Inhibition Assay. SHP2 is allosterically activated through binding of bis-tyrosyl-phosphorylated peptides to its Src Homology 2 (SH2) domains. […] The catalytic activity of SHP2 was monitored using the surrogate substrate DiFMUP in a prompt fluorescence assay format. The inhibitor dose response curves were analyzed using normalized IC50 regression curve fitting with control based normalization.
Where a name gives a salt, the structure may show the parent alone.
Quantity kind: IC50

compound="CC1(N)CCN(c2cc(=O)nc3[nH]nc(-c4cccc(Cl)c4F)n23)CC1 [Compound F2, hydrochloride]" quantity_kind=IC50 result="> 20000 nM"
compound="C[C@@H]1OCC2(CCN(c3nc4[nH]nc(N5CCc6ccccc6C5)c4c(=O)n3C)CC2)[C@@H]1N [Compound F12]" quantity_kind=IC50 result="< 1000 nM"
compound="O=c1c2[nH]nc(-c3cccc(Cl)c3Cl)c2ncn1C1CCNCC1 [Compound F5]" quantity_kind=IC50 result="1000 to 20000 nM"
compound="C[C@@H]1OCC2(CCN(c3nc4[nH]nc(N5CCc6ncccc65)c4c(=O)n3C)CC2)[C@@H]1N [Compound F11, formate]" quantity_kind=IC50 result="1000 to 20000 nM"

Suppose we examine the compound Cn1c(N2CCC(C)(CN)CC2)nc2[nH]nc(Sc3cccc(Cl)c3Cl)c2c1=O [Compound F7, hydrochloride] ; what IC50 value has been reported?
< 1000 nM

Can you share its IC50? I mean this compound: Cn1c(N2CCC(C)(CN)CC2)nc2[nH]nc(N3CCCc4ncccc43)c2c1=O [Compound F1, hydrochloride]
< 1000 nM

Which value of IC50 has been reported for COc1nc(N2CCC(C)(N)CC2)nc2[nH]nc(-c3cccc(Cl)c3Cl)c12 [Compound F9] in the records?
< 1000 nM
